Provide the recorded pIC50 for the entries that follow.
TARGET OF ASSAY: IKKε (Homo sapiens (Human), UniProt Q14164)
Sequence (Q14164 whole entry): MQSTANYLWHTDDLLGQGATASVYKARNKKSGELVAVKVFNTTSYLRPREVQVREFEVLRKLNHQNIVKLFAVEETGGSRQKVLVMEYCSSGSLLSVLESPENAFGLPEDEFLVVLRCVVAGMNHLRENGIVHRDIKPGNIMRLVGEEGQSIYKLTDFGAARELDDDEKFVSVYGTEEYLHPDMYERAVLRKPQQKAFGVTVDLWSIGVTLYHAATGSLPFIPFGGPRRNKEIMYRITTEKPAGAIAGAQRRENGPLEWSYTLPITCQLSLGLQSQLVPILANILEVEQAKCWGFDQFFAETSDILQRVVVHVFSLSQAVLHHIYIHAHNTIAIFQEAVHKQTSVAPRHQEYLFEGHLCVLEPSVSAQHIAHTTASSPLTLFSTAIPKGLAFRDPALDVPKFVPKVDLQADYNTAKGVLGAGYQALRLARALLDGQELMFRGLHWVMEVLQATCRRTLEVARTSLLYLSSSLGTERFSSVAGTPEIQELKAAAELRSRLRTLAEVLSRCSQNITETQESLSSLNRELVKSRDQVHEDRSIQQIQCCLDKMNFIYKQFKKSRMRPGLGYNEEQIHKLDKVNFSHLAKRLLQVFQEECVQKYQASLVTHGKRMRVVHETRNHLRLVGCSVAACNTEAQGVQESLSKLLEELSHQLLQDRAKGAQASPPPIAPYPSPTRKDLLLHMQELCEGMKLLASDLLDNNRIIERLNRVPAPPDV
MEASUREMENT PROTOCOL: Lanthascreen TR-FRET kinase inhibition assay, IKKε
Format: biochemical
RECORDED CONDITIONS: 20 μM ATP (apparent Km), 2 nM kinase, 1 h
pIC50: −log10 of the molar value.

Exercise: Entry under review: `N#Cc1cc(-c2ccnc(Nc3ccc(N4CCOCC4)nc3)n2)cnc1N1CC[C@H](O)C1` . Reported pIC50?
Solution: > 7.00

Exercise: Entry under review: `CC(C)(O)CNc1ccc(Nc2nccc(-c3cnc(N4CC[C@H](F)C4)c(C#N)c3)n2)cn1` . Reported pIC50?
Solution: > 7.82

Exercise: Entry under review: `CN1CCC(Nc2ccc(Nc3nccc(-c4cnc(N5CC[C@H](O)C5)c(C#N)c4)n3)cn2)CC1` . Reported pIC50?
Solution: > 7.00

Exercise: Entry under review: `COCCN(C)Cc1ccc(Nc2nccc(-c3ccc(N4CC[C@H](F)C4)c(C#N)n3)n2)cn1` . Reported pIC50?
Solution: > 7.52

Exercise: Entry under review: `COCCN(C)Cc1ccc(Nc2nccc(-c3cnc(N4CC[C@H](F)C4)c(C#N)c3)n2)cn1` . Reported pIC50?
Solution: > 7.00

Exercise: Entry under review: `COCCNCC(=O)Nc1ccc(Nc2nccc(-c3cnc(N4CC[C@H](F)C4)c(C#N)c3)n2)cn1` . Reported pIC50?
Solution: > 7.52

Exercise: Entry under review: `N#Cc1cc(-c2ccnc(Nc3ccc4c(c3)CNC4)n2)cnc1N1CC[C@H](F)C1` . Reported pIC50?
Solution: > 7.82

Exercise: Entry under review: `N#Cc1nc(-c2ccnc(Nc3ccc(CN4CCOCC4)nc3)n2)ccc1N1CC[C@H](F)C1` . Reported pIC50?
Solution: > 7.82

Exercise: Entry under review: CN(c1ncc(-c2ccnc(Nc3ccc(CN4CCOCC4)nc3)n2)cc1C#N)C1CCOC1 (centres unmarked) . Reported pIC50?
Solution: > 7.00

Exercise: Entry under review: CC(C(=O)Nc1ccc(Nc2nccc(-c3cnc(N4CC[C@H](F)C4)c(C#N)c3)n2)cn1)N(C)C (some centres unmarked) . Reported pIC50?
Solution: > 7.00

Exercise: Entry under review: `CN(CCO)c1cc(Nc2nccc(-c3cnc(N4CC[C@H](F)C4)c(C#N)c3)n2)ccn1` . Reported pIC50?
Solution: > 7.52

Exercise: Entry under review: N#Cc1cc(-c2ccnc(Nc3ccc(CN4CCOCC4)nc3)n2)cnc1N1CCC(CCC(N)=O)C1 (centres unmarked) . Reported pIC50?
Solution: > 7.52

Exercise: Entry under review: `COCCNc1cc(Nc2nccc(-c3cnc(N4CC[C@H](F)C4)c(C#N)c3)n2)ccn1` . Reported pIC50?
Solution: > 7.52

Exercise: Entry under review: `N#Cc1cc(-c2ccnc(Nc3ccc(CN4CCOCC4)nc3)n2)cnc1N1CCCOCC1` . Reported pIC50?
Solution: > 7.00

Exercise: Entry under review: `N#Cc1cc(-c2ccnc(Nc3cncc(CN4CCOCC4)c3)n2)cnc1N1CC[C@H](F)C1` . Reported pIC50?
Solution: > 7.52

Exercise: Entry under review: `CN1CCC(NC(=O)c2cccc(Nc3nccc(-c4cnc(N5CC[C@H](O)C5)c(C#N)c4)n3)c2)CC1` . Reported pIC50?
Solution: > 6.00

Exercise: Entry under review: `N#Cc1cc(-c2ccnc(Nc3cccc(C(N)=O)c3)n2)cnc1N1CCCC1` . Reported pIC50?
Solution: > 7.52
